Target: BTK (Homo sapiens (Human))
Assay: Btk in vitro inhibitory activity (one of Method A TR-FRET, Method B electrophoretic mobility shift, Method C radiometric filter binding)
Assay type: biochemical
Settings: Btk (IC50)
Metric: IC50

[[record]]
molecular_string = "CN(C)C(=O)N[C@@H]1CCCN(c2cnc(C(N)=O)c(Nc3ccc(=O)n(C)c3)n2)C1"
measured_on = "BTK (Homo sapiens (Human))"
result = "0.01 to 0.1 µM"


Return IC50 measured with BTK (Homo sapiens (Human)) given this compound: COc1ccc(C(=O)N[C@@H]2CCCN(c3cnc(C(N)=O)c(Nc4ccc(C5CCN(CC(F)(F)F)CC5)cc4)n3)C2)cc1
0.01 to 0.1 µM

Return IC50 measured with BTK (Homo sapiens (Human)) given this compound: CN(C)C(=O)N[C@@H]1CCCN(c2cnc(C(N)=O)c(Nc3ccc(C4(C#N)CCCC4)cc3)n2)C1
< 0.01 µM

Return IC50 measured with BTK (Homo sapiens (Human)) given this compound: CC(C)C1CCN(C(=O)N[C@@H]2CCCN(c3nnc(C(N)=O)c(Nc4ccc(C(=O)N5CCOCC5)cc4)n3)C2)CC1
0.01 to 0.1 µM

Return IC50 measured with BTK (Homo sapiens (Human)) given this compound: NC(=O)c1nnc(N2CCC[C@@H](NC(=O)c3ccc4ccccc4n3)C2)nc1Nc1ccc(C(=O)N2CCOCC2)cc1
0.01 to 0.1 µM

Return IC50 measured with BTK (Homo sapiens (Human)) given this compound: C[C@H]1[C@H](NC(=O)N(C)C)CCCN1c1cnc(C(N)=O)c(Nc2ccc(C3CCN(C4CCCC4)CC3)cc2)n1
0.1 to 1 µM

Return IC50 measured with BTK (Homo sapiens (Human)) given this compound: CS(=O)(=O)N[C@@H]1CCCN(c2cnc(C(N)=O)c(Nc3ccc(C4CCN(C5CCCC5)CC4)cc3)n2)C1
0.01 to 0.1 µM

---

Listed here are compounds together with their documented pIC50.
Target: BTK (Homo sapiens (Human), UniProt Q06187)
Sequence (Q06187 whole entry): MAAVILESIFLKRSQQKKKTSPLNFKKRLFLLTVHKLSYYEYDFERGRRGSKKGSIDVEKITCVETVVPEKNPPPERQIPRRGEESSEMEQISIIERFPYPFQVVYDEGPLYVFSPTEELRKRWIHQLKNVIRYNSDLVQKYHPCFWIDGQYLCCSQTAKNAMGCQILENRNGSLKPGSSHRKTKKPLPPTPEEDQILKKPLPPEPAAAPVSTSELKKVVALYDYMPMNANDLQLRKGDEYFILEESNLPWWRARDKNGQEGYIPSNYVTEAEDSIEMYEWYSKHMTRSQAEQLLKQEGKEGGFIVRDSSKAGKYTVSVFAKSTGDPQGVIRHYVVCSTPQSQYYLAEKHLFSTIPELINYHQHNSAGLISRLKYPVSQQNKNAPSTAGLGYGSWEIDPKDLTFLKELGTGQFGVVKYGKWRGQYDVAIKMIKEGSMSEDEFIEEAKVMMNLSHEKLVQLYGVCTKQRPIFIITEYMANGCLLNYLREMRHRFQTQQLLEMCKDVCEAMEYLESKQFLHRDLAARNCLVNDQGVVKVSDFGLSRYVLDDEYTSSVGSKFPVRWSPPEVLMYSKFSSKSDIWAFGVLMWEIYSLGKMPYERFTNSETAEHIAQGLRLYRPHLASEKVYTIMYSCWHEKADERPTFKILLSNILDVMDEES
Assay: Btk in vitro inhibitory activity (one of Method A TR-FRET, Method B electrophoretic mobility shift, Method C radiometric filter binding)
Assay type: biochemical
Conditions: determined using one of the methods of Example 355a, 355b and 355c; read-out: BTK IC50
pIC50: −log10 of the molar value.

Examples from the recorded data:
[[record]]
molecular_string = "CN(C)C(=O)N[C@@H]1CCCN(c2cnc(C(N)=O)c(Nc3ccc(C4CCN(S(=O)(=O)N(C)C)CC4)cc3)n2)C1"
measured_on = "BTK (Homo sapiens (Human), UniProt Q06187)"
result = "7.00 to 8.00"

[[record]]
molecular_string = "CN(C)C(=O)N[C@@H]1CCCN(c2cnc(C(N)=O)c(Nc3ccc(C4CCN(C(=O)CC#N)CC4)cc3)n2)C1"
measured_on = "BTK (Homo sapiens (Human), UniProt Q06187)"
result = "> 8.00"

[[record]]
molecular_string = "NC(=O)c1nnc(N2CCC[C@@H](NC(=O)C3CCCC3)C2)nc1Nc1ccc(C(=O)N2CCOCC2)cc1"
measured_on = "BTK (Homo sapiens (Human), UniProt Q06187)"
result = "7.00 to 8.00"

[[record]]
molecular_string = "CN1CCN([C@@H]2CCCN(c3cnc(C(N)=O)c(Nc4ccc(N5CCS(=O)(=O)CC5)cc4)n3)C2)C1=O"
measured_on = "BTK (Homo sapiens (Human), UniProt Q06187)"
result = "> 8.00"

[[record]]
molecular_string = "NC(=O)c1nnc(N2CCC[C@@H](NC(=O)c3ccc4ncccc4c3)C2)nc1Nc1ccc(C(=O)N2CCOCC2)cc1"
measured_on = "BTK (Homo sapiens (Human), UniProt Q06187)"
result = "7.00 to 8.00"

[[record]]
molecular_string = "NC(=O)c1nnc(N2CCC[C@@H](NC(=O)c3ccc(Cl)cc3)C2)nc1Nc1ccc(C(=O)N2CCOCC2)cc1"
measured_on = "BTK (Homo sapiens (Human), UniProt Q06187)"
result = "> 8.00"


Consider the compound COc1ccc(C(=O)N[C@@H]2CCCN(c3cnc(C(N)=O)c(Nc4ccc(C5CCN(C(=O)N(C)C)CC5)cc4)n3)C2)cc1 and give its measured pIC50.
7.00 to 8.00

Consider the compound CC(C)(C)c1ccc(C(=O)N[C@@H]2CCCN(c3nnc(C(N)=O)c(Nc4cccc(-c5ncccn5)c4)n3)C2)cc1 and give its measured pIC50.
6.00 to 7.00

Consider the compound COc1ccc(C(=O)N[C@@H]2CCCN(c3cnc(C(N)=O)c(Nc4ccc(OCCN(C)C)cc4)n3)C2)cc1 and give its measured pIC50.
> 8.00

---

Biological target: BTK (Homo sapiens (Human), UniProt Q06187)
Assay: Btk in vitro inhibitory activity (one of Method A TR-FRET, Method B electrophoretic mobility shift, Method C radiometric filter binding)
Assay type: biochemical
Conditions: determined using one of the methods of Example 355a, 355b and 355c; read-out: BTK IC50
pIC50: −log10 of the molar value.
Metric: pIC50

Examples from the recorded data:
[[record]]
compound = "NC(=O)c1nnc(N[C@@H]2CCCNC2)nc1Nc1ccc(C(=O)N2CCOCC2)cc1"
result = "5.00 to 6.00"

[[record]]
compound = "NC(=O)c1nnc(N2CCC[C@@H](NC(=O)c3ccc(C4CC4)cc3)C2)nc1Nc1ccc(C(=O)N2CCOCC2)cc1"
result = "> 8.00"

[[record]]
compound = "CN(C)C(=O)N[C@@H]1CCCN(c2cnc(C(N)=O)c(Nc3ccccc3)n2)C1"
result = "6.00 to 7.00"

[[record]]
compound = "C=CC(=O)N1CCC[C@@H](N(C)c2cnc(C(N)=O)c(Nc3ccc(C(=O)N4CCOCC4)cc3)n2)C1"
result = "> 8.00"

[[record]]
compound = "CN(C)C(=O)N1CC[C@@H]2[C@H]1CCCN2c1cnc(C(N)=O)c(Nc2ccc(C3CCN(C4CCCC4)CC3)cc2)n1 (racemic)"
result = "7.00 to 8.00"

[[record]]
compound = "C[C@@H]1[C@H](NC(=O)N(C)C)CCCN1c1cnc(C(N)=O)c(Nc2ccc(C3CCN(C4CCC4)CC3)cc2)n1"
result = "> 8.00"

[[record]]
compound = "COc1ccc(C(=O)N[C@@H]2CCCN(c3cnc(C(N)=O)c(Nc4ccc(C5CCN(C=O)CC5)cc4)n3)C2)cc1"
result = "> 8.00"

[[record]]
compound = "COc1ccc(C(=O)N[C@@H]2CCCN(c3cnc(C(N)=O)c(Nc4ccc(N5CCOCC5)nc4)n3)C2)cc1"
result = "> 8.00"


Consider the compound NC(=O)c1nnc(N2CCC[C@@H](NC(=O)N3CCCCC3)C2)nc1Nc1ccc2cccnc2c1 and give its measured pIC50.
6.00 to 7.00

Consider the compound CCN1CCN([C@@H]2CCCN(c3cnc(C(N)=O)c(Nc4ccc(C5(C)CCN(C6CC6)CC5)cc4)n3)C2)C1=O and give its measured pIC50.
> 8.00

Consider the compound NC(=O)c1ncc(N2CCC[C@@H]3[C@H]2CCN3C(=O)C2CC2)nc1Nc1ccc(C2CCN(C3CCCC3)CC2)cc1 (racemic) and give its measured pIC50.
7.00 to 8.00

---

Biological target: BTK (Homo sapiens (Human), UniProt Q06187)
Assay: Btk in vitro inhibitory activity (one of Method A TR-FRET, Method B electrophoretic mobility shift, Method C radiometric filter binding)
Type: biochemical
Details: determined using one of the methods of Example 355a, 355b and 355c; read-out: BTK IC50
Metric: IC50

Examples from the recorded data:
[[record]]
compound = "CS(=O)(=O)c1ccc(Nc2nc(N3CCC[C@@H](NC(=O)N4CCCCC4)C3)cnc2C(N)=O)cc1"
metric = "IC50"
result = "< 10 nM"

[[record]]
compound = "CN1CCN(c2ccc(Nc3nc(N4CCC[C@@H](NC(=O)N5CCCCC5)C4)cnc3C(N)=O)cc2)CC1"
metric = "IC50"
result = "10 to 100 nM"

[[record]]
compound = "CN(C)Cc1ccc(Nc2nc(N3CCC[C@@H](NC(=O)N(C)C)C3)cnc2C(N)=O)cc1"
metric = "IC50"
result = "10 to 100 nM"

[[record]]
compound = "CN(C)C(=O)N[C@@H]1CCCN(c2cnc(C(N)=O)c(Nc3ccc(C4CCN(S(C)(=O)=O)CC4)cc3)n2)C1"
metric = "IC50"
result = "< 10 nM"

[[record]]
compound = "CN(C)C(=O)N1CC[C@@H]2CCN(c3cnc(C(N)=O)c(Nc4ccc(C5CCN(C6CCCC6)CC5)cc4)n3)C[C@@H]21 (racemic)"
metric = "IC50"
result = "10 to 100 nM"

[[record]]
compound = "NC(=O)c1ncc(N2CC[C@H]3CCN(C(=O)C4CC4)[C@H]3C2)nc1Nc1ccc(C2CCN(C3CCCC3)CC2)cc1 (racemic)"
metric = "IC50"
result = "10 to 100 nM"


// switching to the query compound
Consider the compound CCC(=O)N1CCC(c2ccc(Nc3nc(N4CCC[C@@H](N(C)C(=O)N(C)C)C4)cnc3C(N)=O)cc2)CC1 and give its measured IC50.
10 to 100 nM

Reference source for all entries: patent US9656988B2
